measured-target: T1, FLRT3-His monomeric fusion protein (Homo sapiens (Human), UniProt Q9NZU0 29-528)
T1 construct: also called FLRT3 monomer; not shown: His tag
T1 sequence: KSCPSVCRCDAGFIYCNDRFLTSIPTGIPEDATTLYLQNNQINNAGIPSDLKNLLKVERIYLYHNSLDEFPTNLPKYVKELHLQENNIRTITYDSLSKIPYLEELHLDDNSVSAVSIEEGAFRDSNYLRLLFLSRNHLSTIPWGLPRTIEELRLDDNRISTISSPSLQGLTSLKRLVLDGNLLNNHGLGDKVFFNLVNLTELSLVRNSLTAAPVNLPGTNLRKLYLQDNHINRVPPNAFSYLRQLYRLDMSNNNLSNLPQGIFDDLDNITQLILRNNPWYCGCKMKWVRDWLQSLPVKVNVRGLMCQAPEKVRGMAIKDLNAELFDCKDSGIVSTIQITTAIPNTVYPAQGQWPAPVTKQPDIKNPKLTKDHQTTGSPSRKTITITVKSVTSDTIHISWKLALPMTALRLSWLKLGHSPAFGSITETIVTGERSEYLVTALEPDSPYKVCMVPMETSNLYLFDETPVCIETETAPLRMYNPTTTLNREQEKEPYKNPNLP
measurement-description: kinetic affinity measurement with FLRT3-His monomer (Table 1)
outcome-measure: pKd
FYI, pKd means -log10 of a concentration in mol per litre.

Consider the following illustrative entries.
According to the records, this binder 12A4 (antibody, V domains shown, Variable domains only) VH: EVQLQQSGPELVKPGASVKMSCKASGYTFTDYYMNWVKQSHGKSLEWIGRVNPSNGGTTYNQRFKGKATLTVDESLSTAYMQLNSLTSEDSAVYYCARDFLMDYWGQGTSVTVSS VL: DIVMTQSHKFMSTSVGDRVSITCKASQDVGTAVTWYQQKPGLSPKLLFYWASTRHTGVPDRFTGSGSGTDFTLTISNVQSEDLADYFCHQYSNYPTFGGGTKLEIK displays pKd of 9.66

The reported value for 20C3 (antibody, V domains shown, Variable domains only) VH: EVKLEESGGGLVQPGGSMKLSCVVSGFTFSNYWMNWVRQSPEKGLEWVAQIRLKSDNYATHYAESVKGRFTISRDDSKSSVYLQMNNLRAEDTGIYYCTGESNIYYGYFDYWGQGTTLTVSS VL: QIVLTQSPAIMSASPGEKVTMTCSASSSVSYMHWYQQKSGTSPKRWIYDTSKLASGVPARFSGSGSGTSYSLTISSMEAEDAATYYCQQWSGNPYTFGGGTKLEIK in terms of pKd is 8.66

Entry 14B7 (antibody, V domains shown, Variable domains only; also called FLRT3 mAb 14B7; antibody 14B7) VH: QVQLQQSGPELVKPGASVNISCKASGYAFGNSWMNWVKQRPGKGLEWIGWIYPGDGNANYNGKFKGKATLTADKSSSTAYMQLSSLTSEDSAVYFCARALYDYDGWFAYWGQGTLVTVSA VL: DIQMNQSPSSLSASLGDTITIACRASQNIDIWLSWYQQKPGSIPKLLIYKASNLHTGVPSRFSGSGSGTDFTLTISSLQPEDIATYYCLQGQSFPFTFGSGTKLEIK — recorded pKd = 9.46

Field: next binder
get_value(item= 1H5 (antibody, V domains shown, Variable domains only) VH: EVQLQQSGPELVKPGASVKMSCKASGYTFTDYYMNWVKQSHGKSLEWIGRVNPSNGVTSYNQKFKGKAALTVDKSLSTAYMQLNSLTSEDSAVYYCARDFLMDYWGQGTSVTVSS VL: DIVMTQSHKFMSTSVGDRVTITCKASQDVGTAVAWYQQKPGQSPKLLIYWASTRHTGVPDRFTGSGSGTDFTLTISNVQSEDLADYFCQQYSSYPTFGGGTKLEIK , readout=pKd) returns 9.72
